molecular target: UniProt:P51956; assay: radiometric filter-binding kinase assay, Kinase HotSpot; settings: compound 0.5 µM; ATP 10 µM
Sequence (P51956 whole entry, looked up): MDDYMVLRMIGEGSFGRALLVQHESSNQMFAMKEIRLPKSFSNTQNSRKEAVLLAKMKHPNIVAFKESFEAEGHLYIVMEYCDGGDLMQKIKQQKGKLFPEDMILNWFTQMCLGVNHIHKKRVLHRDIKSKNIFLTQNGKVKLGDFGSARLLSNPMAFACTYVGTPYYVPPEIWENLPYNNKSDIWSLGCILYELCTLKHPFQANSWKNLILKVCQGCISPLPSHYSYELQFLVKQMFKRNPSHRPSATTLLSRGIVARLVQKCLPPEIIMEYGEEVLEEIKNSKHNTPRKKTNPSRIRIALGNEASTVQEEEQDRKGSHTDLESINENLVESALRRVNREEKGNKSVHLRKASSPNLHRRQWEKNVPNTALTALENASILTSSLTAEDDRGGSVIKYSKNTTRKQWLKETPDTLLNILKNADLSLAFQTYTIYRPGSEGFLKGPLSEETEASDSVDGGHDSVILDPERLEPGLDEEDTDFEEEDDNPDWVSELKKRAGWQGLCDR
Answer each item with its documented residual activity.
Form entry: enter the amount, then its unit.

// below: answered compounds
CCOc1cc2ncnc(Nc3cccc(Br)c3)c2cc1OCC 100%
c1ccc(-c2cnc(Nc3ccc(OCCN4CCCC4)cc3)s2)cc1 92.9%
FC(F)(F)c1ccc(/C=C/c2nc(COc3ccc(CCCCn4ccnn4)cc3)co2)cc1 100%
O=C(O)c1ccc2c3c1cccc3c(=O)n1c3ccccc3nc21 91.8%

Could I get residual activity for every one of these entries?
1. O=C1NC(=O)c2c1c1c3ccccc3[nH]c1c1[nH]c3cc(Br)ccc3c21
2. N#C/C(=C1/Nc2ccccc2S1)c1ccnc(NCCc2cccnc2)n1
3. O=c1cc(N2CCOCC2)oc2c(-c3ccccc3)cccc12
4. N#CCCc1ccc2c(c1)-c1[nH]c3ccc([N+](=O)[O-])cc3c1CC(=O)N2
5. O=C1NC(=O)c2cc(Nc3ccc(F)cc3)c(Nc3ccc(F)cc3)cc21
6. N/C(=N\N=C/c1ccc(-c2cccc([N+](=O)[O-])c2)o1)N[N+](=O)[O-]
7. COc1cc2c(N3CCN(C(=O)Nc4ccc(OC(C)C)cc4)CC3)ncnc2cc1OCCCN1CCCCC1
8. CCCCc1c(-c2ccc(O)cc2)[nH]c2nccnc12

1. 88.3%
2. 87.9%
3. 102%
4. 104%
5. 99.1%
6. 101%
7. 103%
8. 103%

Could I get residual activity for every one of these entries?
1. O=c1c(-c2ccc(F)cc2)c(-c2ccncc2)[nH]n1-c1ccc(Cl)cc1
2. O=S(=O)(NCCNC/C=C/c1ccc(Br)cc1)c1cccc2cnccc12
3. COc1cc2c(Nc3ccc(Br)cc3F)ncnc2cc1OCC1CCN(C)CC1

1: 100%; 2: 94.4%; 3: 103%
